These data points were gathered from ChEMBL document CHEMBL1150432.

- TARGET_OF_ASSAY: Beta-2 adrenergic receptor (Homo sapiens)
- Sequence (P07550 whole entry): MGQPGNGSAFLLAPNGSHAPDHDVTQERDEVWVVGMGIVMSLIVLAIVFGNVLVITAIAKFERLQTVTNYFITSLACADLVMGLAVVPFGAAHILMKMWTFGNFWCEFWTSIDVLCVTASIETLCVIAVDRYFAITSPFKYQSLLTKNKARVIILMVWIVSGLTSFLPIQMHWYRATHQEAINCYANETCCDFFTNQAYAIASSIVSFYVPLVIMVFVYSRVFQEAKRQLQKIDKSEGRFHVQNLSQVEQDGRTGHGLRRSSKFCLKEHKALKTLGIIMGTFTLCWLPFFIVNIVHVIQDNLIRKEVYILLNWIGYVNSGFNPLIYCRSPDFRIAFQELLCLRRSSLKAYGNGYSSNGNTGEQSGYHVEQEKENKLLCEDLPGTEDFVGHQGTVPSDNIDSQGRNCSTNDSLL
- RUN_DESCRIPTION: Binding affinity to human adrenergic beta2 receptor
MEASUREMENT_KIND: IC50

Which IC50 reading was recorded for the compound O=C(Nc1ccc2[nH]cc(C3CCN(CCCCCCCN4CCC(c5c[nH]c6ccc(NC(=O)c7ccc(F)cc7)cc56)CC4)CC3)c2c1)c1ccc(F)cc1 ?
> 10 µM

###

- RUN_DESCRIPTION: Displacement of [3H]5-hydroxytryptamine from human cloned 5HT1D receptor expressed in CHOK1 cells by liquid scintillation counting
- CONDITION_DETAILS: cho-k1
MEASUREMENT_KIND: IC50 (nM)
State the answer as a number, implicitly in nM.

Which IC50 reading was recorded for the molecule NC(=O)c1ccc2[nH]cc(C3=CCC(NCCCCCCCNC4CC=C(c5c[nH]c6ccc(C(N)=O)cc56)CC4)CC3)c2c1 (stereo unspecified) ?
0.05
